target: Estrogen receptor (Mus musculus) (UniProt O08537+P19785); assay: Relative binding affinity (RBA) for murine cytoplasmic estrogen receptor at 25 degree C for 2 hr; assay type: protein assay
Sequence (O08537 whole entry, looked up): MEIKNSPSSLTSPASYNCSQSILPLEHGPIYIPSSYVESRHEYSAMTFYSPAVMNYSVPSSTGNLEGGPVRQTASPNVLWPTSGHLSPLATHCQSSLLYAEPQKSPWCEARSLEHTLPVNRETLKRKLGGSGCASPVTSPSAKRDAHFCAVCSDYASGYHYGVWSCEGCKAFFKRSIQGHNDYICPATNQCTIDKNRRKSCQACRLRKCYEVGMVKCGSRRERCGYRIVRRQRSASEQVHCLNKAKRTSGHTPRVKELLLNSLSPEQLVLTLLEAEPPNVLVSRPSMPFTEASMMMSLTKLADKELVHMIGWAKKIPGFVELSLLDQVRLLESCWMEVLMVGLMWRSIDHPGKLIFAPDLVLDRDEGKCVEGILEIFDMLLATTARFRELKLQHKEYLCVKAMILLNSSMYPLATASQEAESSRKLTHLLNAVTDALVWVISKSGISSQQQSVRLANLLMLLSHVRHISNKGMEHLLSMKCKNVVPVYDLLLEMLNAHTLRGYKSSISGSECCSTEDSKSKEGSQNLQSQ
Sequence (P19785 whole entry, looked up): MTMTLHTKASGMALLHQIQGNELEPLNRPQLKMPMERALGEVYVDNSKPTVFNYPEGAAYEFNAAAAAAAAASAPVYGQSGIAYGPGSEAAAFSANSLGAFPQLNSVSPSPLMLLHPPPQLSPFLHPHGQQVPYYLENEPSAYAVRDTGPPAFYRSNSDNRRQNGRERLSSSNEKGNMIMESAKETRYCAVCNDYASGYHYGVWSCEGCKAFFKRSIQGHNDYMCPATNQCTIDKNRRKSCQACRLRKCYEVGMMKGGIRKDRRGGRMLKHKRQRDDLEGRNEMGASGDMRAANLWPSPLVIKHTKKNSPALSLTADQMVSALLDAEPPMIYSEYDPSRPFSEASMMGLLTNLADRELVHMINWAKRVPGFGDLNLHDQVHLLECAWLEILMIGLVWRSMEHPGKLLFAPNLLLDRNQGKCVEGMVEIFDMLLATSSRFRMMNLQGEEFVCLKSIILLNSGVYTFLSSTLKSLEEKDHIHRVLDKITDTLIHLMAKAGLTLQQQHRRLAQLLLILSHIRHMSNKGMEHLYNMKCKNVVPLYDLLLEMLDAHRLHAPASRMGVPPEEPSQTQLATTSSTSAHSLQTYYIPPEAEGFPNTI
In this section, each of the compounds is paired with its reported RBA.
Number only, please.

Check out these entries, answers already filled in.
{"smiles-record": "C[C@]12CC[C@@H]3c4cc(F)c(O)cc4CC[C@H]3[C@@H]1CC[C@@]2(O)/C=C\\I", "RBA": 99}
{"smiles-record": "C[C@]12CC[C@@H]3c4ccc(O)c(F)c4CC[C@H]3[C@@H]1CC[C@@]2(O)/C=C/I", "RBA": 29.1}
{"smiles-record": "C[C@]12CC[C@@H]3c4ccc(O)c(F)c4CC[C@H]3[C@@H]1CC[C@@]2(O)/C=C\\I", "RBA": 203}

INPUT: Give RBA for the following compound: C[C@]12CC[C@@H]3c4cc(F)c(O)cc4CC[C@H]3[C@@H]1CC[C@@]2(O)/C=C/I
OUTPUT: 5.3

INPUT: Determine its reported RBA: C#C[C@]1(O)CC[C@H]2[C@@H]3CCc4c(ccc(O)c4F)[C@H]3CC[C@@]21C
OUTPUT: 166

---

test system: Rattus norvegicus; assay: Biodistribution in uterus of immature female rat after 1 hr administration of 3 micro Ci (111 kBq) in the presence of (+E2); assay type: ADME, organism-based; conditions: in vivo
Recorded measurements of ID/g, one per entry
Could you kindly put the unit after your number?

{"smiles-record": "C[C@@H]1Cc2c(ccc(O)c2F)[C@H]2CC[C@@]3(C)[C@@H](CC[C@@]3(O)/C=C/I)[C@H]12", "target-entity": "Rattus norvegicus", "endpoint": "ID/g", "result": "1.14%"}

INPUT: Report ID/g from Rattus norvegicus testing of C[C@]12CC[C@@H]3c4ccc(O)c(F)c4CC[C@H]3[C@@H]1CC[C@@]2(O)/C=C/I
OUTPUT: 0.77%

INPUT: // fetch ID/g; item: CO[C@H]1C[C@@]2(C)[C@@H](CC[C@@]2(O)/C=C\I)[C@@H]2CCc3c(ccc(O)c3F)[C@H]21 ; system: Rattus norvegicus
OUTPUT: 1.06%

---

system: Rattus norvegicus; experiment: Biodistribution in lungs of immature female rat after 5 hour administration of 3 micro Ci (111 kBq) in the absence of 60 microg estradiol; assay type: ADME, organism-based, Lung; conditions: in vivo
Each record here notes measured ID/g.
The reply should be a number in %, with the unit left off.

See these solved cases before continuing.
{"smiles-record": "CO[C@H]1C[C@@]2(C)[C@@H](CC[C@@]2(O)/C=C/I)[C@@H]2CCc3cc(O)c(F)cc3[C@H]21", "endpoint": "ID/g", "unit-of-measure": "%", "measured-number": 0.51}
{"smiles-record": "C[C@]12CC[C@@H]3c4cc(F)c(O)cc4CC[C@H]3[C@@H]1CC[C@@]2(O)/C=C/I", "endpoint": "ID/g", "unit-of-measure": "%", "measured-number": 0.54}
{"smiles-record": "C[C@@H]1Cc2cc(O)c(F)cc2[C@H]2CC[C@@]3(C)[C@@H](CC[C@@]3(O)/C=C\\I)[C@H]12", "endpoint": "ID/g", "unit-of-measure": "%", "measured-number": 0.37}
{"smiles-record": "C[C@]12CC[C@@H]3c4ccc(O)c(F)c4CC[C@H]3[C@@H]1CC[C@@]2(O)/C=C/I", "endpoint": "ID/g", "unit-of-measure": "%", "measured-number": 0.28}

INPUT: Give reported ID/g for C[C@@H]1Cc2c(ccc(O)c2F)[C@H]2CC[C@@]3(C)[C@@H](CC[C@@]3(O)/C=C\I)[C@H]12 (Rattus norvegicus)
OUTPUT: 0.48

INPUT: Send back Rattus norvegicus ID/g of C[C@@H]1Cc2c(ccc(O)c2F)[C@H]2CC[C@@]3(C)[C@@H](CC[C@@]3(O)/C=C/I)[C@H]12 only.
OUTPUT: 0.77

---

system: Rattus norvegicus; assay: Biodistribution in kidney of immature female rat after 3 hour administration of 3 micro Ci (111 kBq) in the absence of 60 microg estradiol; type: ADME, organism-based; conditions: in vivo
endpoint: ID/g (%)
// note: answer is a bare numeric in %

// below: answered compounds
{"smiles-record": "C[C@]12CC[C@@H]3c4ccc(O)c(F)c4CC[C@H]3[C@@H]1CC[C@@]2(O)/C=C\\I", "unit-of-measure": "%", "ID/g": 0.82}
{"smiles-record": "C[C@]12CC[C@@H]3c4ccc(O)c(F)c4CC[C@H]3[C@@H]1CC[C@@]2(O)/C=C/I", "unit-of-measure": "%", "ID/g": 0.59}
{"smiles-record": "CO[C@H]1C[C@@]2(C)[C@@H](CC[C@@]2(O)/C=C\\I)[C@@H]2CCc3c(ccc(O)c3F)[C@H]21", "unit-of-measure": "%", "ID/g": 1.08}

Could you now look at the following compound, please?
INPUT: Report ID/g, nothing else, for this compound: C[C@]12CC[C@@H]3c4cc(F)c(O)cc4CC[C@H]3[C@@H]1CC[C@@]2(O)/C=C\I
OUTPUT: 0.53

---

system: Rattus norvegicus; test: Biodistribution in thyroid of immature female rat after 12 hour administration of 3 micro Ci (111 kBq) in the absence of 60 microg estradiol; assay type: ADME, organism-based, Thyroid gland; details: in vivo
endpoint: ID/g (%)
Numbers only here, please. The scale is %.

Use the examples below as a reference point.
{"smiles-record": "C[C@]12CC[C@@H]3c4ccc(O)c(F)c4CC[C@H]3[C@@H]1CC[C@@]2(O)/C=C\\I", "ID/g, %": 488}
{"smiles-record": "C[C@@H]1Cc2cc(O)c(F)cc2[C@H]2CC[C@@]3(C)[C@@H](CC[C@@]3(O)/C=C\\I)[C@H]12", "ID/g, %": 745}

INPUT: Provide measured ID/g value, entry: C[C@]12CC[C@@H]3c4cc(F)c(O)cc4CC[C@H]3[C@@H]1CC[C@@]2(O)/C=C/I
OUTPUT: 163

---

system: Rattus norvegicus; experiment: Biodistribution in liver of immature female rat after 3 hour administration of 3 micro Ci (111 kBq) in the absence of 60 microg estradiol; format: ADME, organism-based; conditions: in vivo
# ID/g values compiled below
Write it as a number; the unit % goes unstated.

{"smiles-record": "C[C@]12CC[C@@H]3c4ccc(O)c(F)c4CC[C@H]3[C@@H]1CC[C@@]2(O)/C=C/I", "unit-of-measure": "%", "ID/g": 2.2}
{"smiles-record": "C[C@]12CC[C@@H]3c4cc(F)c(O)cc4CC[C@H]3[C@@H]1CC[C@@]2(O)/C=C\\I", "unit-of-measure": "%", "ID/g": 1.76}
{"smiles-record": "C[C@@H]1Cc2c(ccc(O)c2F)[C@H]2CC[C@@]3(C)[C@@H](CC[C@@]3(O)/C=C\\I)[C@H]12", "unit-of-measure": "%", "ID/g": 1.18}
{"smiles-record": "C[C@@H]1Cc2cc(O)c(F)cc2[C@H]2CC[C@@]3(C)[C@@H](CC[C@@]3(O)/C=C\\I)[C@H]12", "unit-of-measure": "%", "ID/g": 1.81}

INPUT: Return ID/g (reported value) for this compound: CO[C@H]1C[C@@]2(C)[C@@H](CC[C@@]2(O)/C=C/I)[C@@H]2CCc3cc(O)c(F)cc3[C@H]21
OUTPUT: 3.56

---

target: Estrogen receptor (Mus musculus) (UniProt O08537+P19785); test: Relative binding affinity (RBA) against murine cytoplasmic estrogen receptor incubated at 0-4 degree Celsius for 18 hours; type: protein assay
Friendly reminder: RBA below 50 is Criterion met, at or above is Criterion not met.

Example entries begin here.
{"smiles-record": "CO[C@H]1C[C@@]2(C)[C@@H](CC[C@@]2(O)/C=C\\I)[C@@H]2CCc3cc(O)c(F)cc3[C@H]21", "label": "Criterion met"}
{"smiles-record": "C=C[C@]1(O)CC[C@H]2[C@@H]3[C@H](C)Cc4cc(O)c(F)cc4[C@H]3CC[C@@]21C", "label": "Criterion met"}
{"smiles-record": "C[C@]12CC[C@@H]3c4cc(F)c(O)cc4CC[C@H]3[C@@H]1CC[C@@]2(O)/C=C\\I", "label": "Criterion not met"}
{"smiles-record": "C[C@@H]1Cc2cc(O)ccc2[C@H]2CC[C@@]3(C)[C@@H](CC[C@@]3(O)/C=C\\I)[C@H]12", "label": "Criterion met"}
{"smiles-record": "C[C@]12CC[C@@H]3c4ccc(O)c(F)c4CC[C@H]3[C@@H]1CC[C@@]2(O)/C=C\\I", "label": "Criterion not met"}

INPUT: Confirm or reject: RBA of C=C[C@]1(O)CC[C@H]2[C@@H]3CCc4c(ccc(O)c4F)[C@H]3CC[C@@]21C lies strictly below 50
OUTPUT: Criterion not met
